# Test system: NCI-H522 lung
# testProtocol: NCI-60 one-dose screen, 48 h (100 = growth as untreated, 0 = no growth, -100 = all killed)
# experimentalConditions: 10 µM unless noted
Compounds without any hit were thinned out: in the full panel of roughly 83,000, 20% have a hit.
Record form. Attribute: growth. Fill in for each entry.
Numbers only, in %.

compound	measurementTarget	recordedResult
Cn1c2ccccc2c2nnc(NCCCCO)nc21	NCI-H522 lung	95.3
OC(CBr)CCBr (stereo unspecified)	NCI-H522 lung	96.5
C/C(=N\Nc1ccc([N+](=O)[O-])cc1[N+](=O)[O-])c1ccc(Br)cc1	NCI-H522 lung	85.5
Cc1ccc2[nH]c3ccccc3c2c1	NCI-H522 lung	101
c1ccc(Nc2ccccn2)nc1	NCI-H522 lung	88.2

# next compound below
Task: Please report the measured growth for `CC(=O)N(C(C)=O)c1ccc(C)cc1`
Result: 113

Measured values drawn from PubChem BioAssay (NCI) for this set.
